Target: T1, monkey GFRα3 expressed with a C-terminal myc-myc-hexahistidine tag (monkey (Mf), UniProt O60609 32-374 (human entry), limits assumed)
T1 construct: also called MfGFRα3-mmh; MfGFRα3-mmH
T1 chain: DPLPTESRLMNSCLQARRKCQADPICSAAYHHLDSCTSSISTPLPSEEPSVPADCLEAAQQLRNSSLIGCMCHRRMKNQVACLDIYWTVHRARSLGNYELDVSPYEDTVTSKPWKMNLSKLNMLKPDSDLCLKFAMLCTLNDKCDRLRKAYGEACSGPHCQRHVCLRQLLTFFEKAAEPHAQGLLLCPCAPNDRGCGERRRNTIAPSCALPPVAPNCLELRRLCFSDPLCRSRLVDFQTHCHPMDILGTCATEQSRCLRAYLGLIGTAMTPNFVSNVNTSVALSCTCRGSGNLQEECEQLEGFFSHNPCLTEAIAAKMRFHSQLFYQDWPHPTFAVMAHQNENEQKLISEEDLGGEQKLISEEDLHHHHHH
Assay: SPR, Ab captured, 25C
The reader will find reported t1/2 values listed item by item below.
Measure name: t1/2 (h)

{"columns": ["Binder", "Measure name", "Measured number"],
 "data": [
  ["H4H2346S (antibody, human IgG4, V domains shown, human IgG4 Fc (H4H)) VH: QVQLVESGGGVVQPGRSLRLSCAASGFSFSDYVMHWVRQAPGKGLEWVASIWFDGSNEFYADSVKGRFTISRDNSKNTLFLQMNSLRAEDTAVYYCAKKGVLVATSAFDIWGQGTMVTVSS VL: EIVMTQSPSSLSASVGDRVTITCRASQSINNYLNWYHQKPGKAPKLLIYAASSLQSGVPSRFSGSGSGTDYTLTISSLQPEDFGNYYCQQSYRTSMYTFGQGTKVEIK", "t1/2", 3.22],
  ["H4H2354S (antibody, human IgG4, V domains shown, human IgG4 Fc (H4H); also called H4H2354S-1) VH: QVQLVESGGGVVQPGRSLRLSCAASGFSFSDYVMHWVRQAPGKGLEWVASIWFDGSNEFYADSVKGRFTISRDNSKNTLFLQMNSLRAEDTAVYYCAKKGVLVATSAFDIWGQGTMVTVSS VL: DIQLTQSPSSLSASVGDRVTITCRASQSINNYLNWYHQKPGKAPKLLIYAASSLQSGVPSRFSGSGSGTDYTLTISSLQPEDFGNYYCQQSYRTSMYTFGQGTKVEIK", "t1/2", 3.08],
  ["H4H2357S (antibody, human IgG4, V domains shown, human IgG4 Fc (H4H)) VH: EVQLVESGGGLVQPGGSLRLSCAASTFTFSSYAMTWVRQAPGKGLEWVSSISGSGDSTYYADSVKGRFTISRDNSKNTLFLQMNSLRAEDTAVYYCAKKDGPGRYYVRYGMDVWGQGTTVTVSS VL: DIQMTQSPSSVSASVGDRVTITCRASQGISSWLAWYQQKPGKAPKLLIYTTSSLQSGVPSRFSGSGSGTDFTLTISSLQPEDFATYYCQQANSFPLTFGGGTKVDIK", "t1/2", 0.617]
]}
